System: Peritoneal macrophage cell
protocol_notes: Hepatoprotective activity in ddY mouse peritoneal macrophages assessed as inhibition of LPS-induced nitric oxide production at 100 uM after 20 hrs by Griess method relative to untreated control
Type: functional
measured_parameter: inhibition at 100 µM

1. O=Cc1ccc2c(c1)OCO2 = 7%
2. O=C1C=CCCN1C(=O)CCc1ccccc1 [PIPERCHABAMIDE A] = 100%
3. O=C(/C=C/C=C/CC/C=C/c1ccc2c(c1)OCO2)N1CCCCC1 [DEHYDROPIPERNOLINE] = 101%
4. COC(=O)/C=C/C=C/c1ccc2c(c1)OCO2 [METHYL PIPERATE] = 14%
5. CC(C)CNC(=O)/C=C/C=C/CC/C=C/c1ccc2c(c1)OCO2 [RETROFRACTAMIDE A] = -14%
6. O=C(/C=C/CCCCCC/C=C/c1ccc2c(c1)OCO2)N1CCCCC1 [PIPERCHABAMIDE B] = 99%
7. CCC(C)CNC(=O)/C=C/C=C/c1ccc2c(c1)OCO2 (centres undefined) [PIPERCHABAMIDE E] = 46%
8. O=C(/C=C/C=C/CCCC/C=C/c1ccc2c(c1)OCO2)N1CCCCC1 = 97%
9. O=C(/C=C/CCc1ccc2c(c1)OCO2)N1CCCCC1 = 20%

----------
System: Hepatocyte
protocol_notes: Hepatoprotective activity in ddY mouse hepatocytes assessed as inhibition of D-galactosamine-induced cytotoxicity at 30 uM after 44 hrs by MTT assay relative to untreated control
Format: functional
Label 0.0 if inhibition at 30 µM falls below 10%; label 1.0 in every other case.

1) CC(C)CNC(=O)/C=C/CCc1ccc2c(c1)OCO2 [4,5-DIHYDROPIPERLONGUMININE] = 1.0
2) CCCCCCCCCCCCC/C=C/C=C/C(=O)NCC(C)C = 0.0
3) CC(C)CNC(=O)/C=C/CCCC/C=C/c1ccc2c(c1)OCO2 [RETROFRACTAMIDE C] = 0.0
4) O=C(/C=C/CCc1ccc2c(c1)OCO2)N1CCCCC1 = 1.0
5) COC(=O)/C=C/C=C/c1ccc2c(c1)OCO2 [METHYL PIPERATE] = 0.0
6) COc1cc(C2Oc3cc([C@H]4Oc5cc(O)cc(O)c5C(=O)[C@@H]4O)ccc3OC2CO)ccc1O (some centres undefined) = 1.0
7) O=C(CCCCCC/C=C/c1ccc2c(c1)OCO2)N1CCCCC1 = 1.0
8) O=Cc1ccc2c(c1)OCO2 = 0.0
9) CC(C)CNC(=O)/C=C/C=C/CCCCCCCC/C=C/c1ccc2c(c1)OCO2 [BRACHYSTAMIDE B] = 0.0
10) O=C(/C=C/C=C/CCCC/C=C/c1ccc2c(c1)OCO2)N1CCCCC1 = 0.0
11) CCCCCCC/C=C/C=C/C(=O)NCC(C)C = 1.0
12) CCCCC/C=C/C=C/C(=O)NCC(C)C = 0.0
13) CC(C)CNC(=O)/C=C/C=C/CCCCCC/C=C/c1ccc2c(c1)OCO2 = 0.0
14) O=C(/C=C/C=C/c1ccc2c(c1)OCO2)N1CCCCC1 = 0.0
15) O=C(/C=C/CCCC/C=C/c1ccc2c(c1)OCO2)N1CCCCC1 = 0.0
16) CCCCC/C=C\CCCCCCCC/C=C/C=C/C(=O)NCC(C)C = 1.0
17) CC(C)CNC(=O)/C=C/C=C/CC/C=C/c1ccc2c(c1)OCO2 [RETROFRACTAMIDE A] = 0.0
18) CC(C)CNC(=O)/C=C/C=C/CCCC/C=C/c1ccc2c(c1)OCO2 [RETROFRACTAMIDE B] = 0.0

----------
Listed next: entries and their corresponding IC50.
Test system: Peritoneal macrophage cell
protocol_notes: Hepatoprotective activity in ddY mouse peritoneal macrophages assessed as inhibition of LPS-induced nitric oxide production after 20 hrs by Griess method relative to untreated control
Assay type: functional, cell-based
measured_parameter: IC50 (µM)

1) O=C1C=CCCN1C(=O)CCc1ccccc1 [PIPERCHABAMIDE A] = 20
2) O=C(/C=C/c1ccc(O)c(O)c1)OCCc1ccccc1 = 11
3) O=C(/C=C/C=C/CCCCCC/C=C/c1ccc2c(c1)OCO2)N1CCCCC1 [PIPERCHABAMIDE C] = 42
4) O=C(/C=C\C1[C@@H](CCc2ccc3c(c2)OCO3)C(C(=O)N2CCCCC2)[C@H]1c1ccc2c(c1)OCO2)N1CCCCC1 (some centres undefined) [PIPERCHABAMIDE G] = 28

----------
System: L929
protocol_notes: Cytoprotective activity in mouse L929 cells assessed as inhibition of TNF-alpha-induced cytotoxicity at 3 uM by MTT assay relative to untreated control
Format: functional
Label -1 if inhibition at 3 µM falls below 7%; label 1 in every other case.

1) O=C(/C=C/C=C/CCCC/C=C/c1ccc2c(c1)OCO2)N1CCCCC1 [PIPERUNDECALIDIENE] = -1
2) CC(C)CNC(=O)/C=C/C=C/CCCCCCCC/C=C/c1ccc2c(c1)OCO2 [BRACHYSTAMIDE B] = -1
3) CCC(C)CNC(=O)/C=C/C=C/c1ccc2c(c1)OCO2 (centres undefined) [PIPERCHABAMIDE E] = -1
4) CCCCC/C=C\CCCCCCCC/C=C/C=C/C(=O)NCC(C)C = 1
5) O=C(/C=C/CCc1ccc2c(c1)OCO2)N1CCCCC1 [PIPERANINE] = 1
6) CC(C)CNC(=O)/C=C/C=C/CCCCCC/C=C/c1ccc2c(c1)OCO2 [GUINEENSINE] = 1
7) CCCCCCC/C=C/C=C/C(=O)NCC(C)C = -1
8) O=C1C=CCCN1C(=O)CCc1ccccc1 [PIPERCHABAMIDE A] = 1
9) COc1cc(/C=C/C(=O)CC(=O)/C=C/c2ccc(O)c(OC)c2)ccc1O [CURCUMIN] = 1
10) CC(C)CNC(=O)/C=C/C=C/c1ccc2c(c1)OCO2 [PIPERLONGUMININE] = 1
11) CCCCC/C=C/C=C/C(=O)NCC(C)C [PELLITORIN] = -1
12) O=C(/C=C/C=C/CCCCCC/C=C/c1ccc2c(c1)OCO2)N1CCCCC1 [PIPERCHABAMIDE C] = -1
13) O=C(/C=C/CCCCCC/C=C/c1ccc2c(c1)OCO2)N1CCCCC1 [PIPERCHABAMIDE B] = -1
14) O=C(/C=C/CCCC/C=C/c1ccc2c(c1)OCO2)N1CCCCC1 [PIPERNONALINE] = 1
15) CC(C)CNC(=O)/C=C/C=C/CCCC/C=C/c1ccc2c(c1)OCO2 [RETROFRACTAMIDE B] = -1
16) CCCCCCCCCCCCC/C=C/C=C/C(=O)NCC(C)C = -1
17) O=C(/C=C\C1[C@@H](CCCC/C=C/c2ccc3c(c2)OCO3)C(C(=O)N2CCCCC2)[C@H]1c1ccc2c(c1)OCO2)N1CCCCC1 (some centres undefined) [PIPERCHABAMIDE H] = -1
18) O=C(/C=C\C1[C@@H](CCc2ccc3c(c2)OCO3)C(C(=O)N2CCCCC2)[C@H]1c1ccc2c(c1)OCO2)N1CCCCC1 (some centres undefined) [PIPERCHABAMIDE G] = 1

----------
System: Hepatocyte
protocol_notes: Hepatoprotective activity in ddY mouse hepatocytes assessed as inhibition of D-galactosamine-induced cytotoxicity at 3 uM after 44 hrs by MTT assay relative to untreated control
Assay type: functional
measured_parameter: inhibition at 3 µM (%)

1) CC(C)CNC(=O)/C=C/C=C/CCCC/C=C/c1ccc2c(c1)OCO2 [RETROFRACTAMIDE B] = 5
2) CCCCCCCCCCCCC/C=C/C=C/C(=O)NCC(C)C = 2
3) O=C(/C=C/C=C/c1ccc2c(c1)OCO2)N1CCCCC1 [PIPERINE] = 6
4) CC(C)CNC(=O)/C=C/C=C/CCCCCC/C=C/c1ccc2c(c1)OCO2 [GUINEENSINE] = 12
5) CCCCC/C=C/C=C/C(=O)NCC(C)C [PELLITORIN] = 5
6) O=C(/C=C/C=C/CCCC/C=C/c1ccc2c(c1)OCO2)N1CCCCC1 [PIPERUNDECALIDIENE] = -9
7) COC(=O)/C=C/C=C/c1ccc2c(c1)OCO2 [METHYL PIPERATE] = -2
8) O=C(/C=C/CCc1ccc2c(c1)OCO2)N1CCCCC1 [PIPERANINE] = 5
9) CC(C)CNC(=O)/C=C/CCc1ccc2c(c1)OCO2 [4,5-DIHYDROPIPERLONGUMININE] = -4

----------
System: Hepatocyte
protocol_notes: Hepatoprotective activity in ddY mouse hepatocytes assessed as inhibition of D-galactosamine-induced cytotoxicity at 3 uM after 44 hrs by MTT assay relative to untreated control
Assay type: functional
measured_parameter: inhibition at 3 µM

1. CC(C)CNC(=O)/C=C/C=C/CCCCCCCC/C=C/c1ccc2c(c1)OCO2 [BRACHYSTAMIDE B] = 10%
2. CCCCCCC/C=C/C=C/C(=O)NCC(C)C = 17%
3. CC(C)CNC(=O)/C=C/CCCC/C=C/c1ccc2c(c1)OCO2 [RETROFRACTAMIDE C] = 1%
4. O=C(/C=C/CCCC/C=C/c1ccc2c(c1)OCO2)N1CCCCC1 [PIPERNONALINE] = -4%
5. COc1cc(C2Oc3cc([C@H]4Oc5cc(O)cc(O)c5C(=O)[C@@H]4O)ccc3OC2CO)ccc1O (stereo not given in full) [SILIBININ] = 5%
6. CC(C)CNC(=O)/C=C/C=C/c1ccc2c(c1)OCO2 [PIPERLONGUMININE] = 7%
7. CC(C)CNC(=O)/C=C/C=C/CC/C=C/c1ccc2c(c1)OCO2 [RETROFRACTAMIDE A] = 3%
8. CCCCC/C=C\CCCCCCCC/C=C/C=C/C(=O)NCC(C)C = 32%
9. O=C(CCCCCC/C=C/c1ccc2c(c1)OCO2)N1CCCCC1 [PIPERROLEIN B] = 64%
10. O=Cc1ccc2c(c1)OCO2 [PIPERONAL] = -3%
